- target.desc: Voltage-dependent L-type calcium channel subunit alpha-1C (Oryctolagus cuniculus)
- procedure.text: Antagonist activity at rabbit CaV1.2alpha1C transfected in HEK293 cells by FLIPR assay
property: IC50

# `C[C@H]1[C@H](n2c(=O)cc(O)n(CCc3ccc(Cl)cc3)c2=O)C[C@@H]2C[C@H]1C2(C)C` with Voltage-dependent L-type calcium channel subunit alpha-1C (Oryctolagus cuniculus): IC50 is > 100 µM

# `C[C@H](c1cccc2ccccc12)n1c(O)cc(=O)n(CCc2cccc(Cl)c2)c1=O` with Voltage-dependent L-type calcium channel subunit alpha-1C (Oryctolagus cuniculus): IC50 is 10 µM

# `CC1(C)[C@@H]2CC[C@H](Cn3c(=O)cc(O)n(CCc4ccc(Cl)cc4)c3=O)[C@H]1C2` with Voltage-dependent L-type calcium channel subunit alpha-1C (Oryctolagus cuniculus): IC50 is > 100 µM

# `COC(=O)[C@H](Cc1ccccc1)n1c(O)cc(=O)n(C2CCCC2)c1=O` with Voltage-dependent L-type calcium channel subunit alpha-1C (Oryctolagus cuniculus): IC50 is > 100 µM

# `O=C(O)[C@H]1CC[C@@H](n2c(=O)cc(O)n(CCc3cccc(Cl)c3)c2=O)C1` with Voltage-dependent L-type calcium channel subunit alpha-1C (Oryctolagus cuniculus): IC50 is > 100 µM

# `O=c1cc(O)n(CCc2cccc(Cl)c2)c(=O)n1[C@H]1C[C@H]2CC[C@@H]1C2` with Voltage-dependent L-type calcium channel subunit alpha-1C (Oryctolagus cuniculus): IC50 is > 100 µM

# `CC(C)(Cn1c(O)cc(=O)n(C2CCCC2)c1=O)c1cccc(Cl)c1` with Voltage-dependent L-type calcium channel subunit alpha-1C (Oryctolagus cuniculus): IC50 is 12.6 µM

# `C[C@H]1[C@H](n2c(=O)cc(O)n(CCc3cccc(Cl)c3)c2=O)C[C@@H]2C[C@H]1C2(C)C` with Voltage-dependent L-type calcium channel subunit alpha-1C (Oryctolagus cuniculus): IC50 is > 100 µM

# `O=c1cc(O)n(CCC(c2ccccc2)c2ccccc2)c(=O)n1C1CCCC1` with Voltage-dependent L-type calcium channel subunit alpha-1C (Oryctolagus cuniculus): IC50 is 4.7 µM

---

- target.desc: Voltage-dependent L-type calcium channel subunit alpha-1C (Oryctolagus cuniculus, UniProt P15381)
- Sequence (P15381 whole entry): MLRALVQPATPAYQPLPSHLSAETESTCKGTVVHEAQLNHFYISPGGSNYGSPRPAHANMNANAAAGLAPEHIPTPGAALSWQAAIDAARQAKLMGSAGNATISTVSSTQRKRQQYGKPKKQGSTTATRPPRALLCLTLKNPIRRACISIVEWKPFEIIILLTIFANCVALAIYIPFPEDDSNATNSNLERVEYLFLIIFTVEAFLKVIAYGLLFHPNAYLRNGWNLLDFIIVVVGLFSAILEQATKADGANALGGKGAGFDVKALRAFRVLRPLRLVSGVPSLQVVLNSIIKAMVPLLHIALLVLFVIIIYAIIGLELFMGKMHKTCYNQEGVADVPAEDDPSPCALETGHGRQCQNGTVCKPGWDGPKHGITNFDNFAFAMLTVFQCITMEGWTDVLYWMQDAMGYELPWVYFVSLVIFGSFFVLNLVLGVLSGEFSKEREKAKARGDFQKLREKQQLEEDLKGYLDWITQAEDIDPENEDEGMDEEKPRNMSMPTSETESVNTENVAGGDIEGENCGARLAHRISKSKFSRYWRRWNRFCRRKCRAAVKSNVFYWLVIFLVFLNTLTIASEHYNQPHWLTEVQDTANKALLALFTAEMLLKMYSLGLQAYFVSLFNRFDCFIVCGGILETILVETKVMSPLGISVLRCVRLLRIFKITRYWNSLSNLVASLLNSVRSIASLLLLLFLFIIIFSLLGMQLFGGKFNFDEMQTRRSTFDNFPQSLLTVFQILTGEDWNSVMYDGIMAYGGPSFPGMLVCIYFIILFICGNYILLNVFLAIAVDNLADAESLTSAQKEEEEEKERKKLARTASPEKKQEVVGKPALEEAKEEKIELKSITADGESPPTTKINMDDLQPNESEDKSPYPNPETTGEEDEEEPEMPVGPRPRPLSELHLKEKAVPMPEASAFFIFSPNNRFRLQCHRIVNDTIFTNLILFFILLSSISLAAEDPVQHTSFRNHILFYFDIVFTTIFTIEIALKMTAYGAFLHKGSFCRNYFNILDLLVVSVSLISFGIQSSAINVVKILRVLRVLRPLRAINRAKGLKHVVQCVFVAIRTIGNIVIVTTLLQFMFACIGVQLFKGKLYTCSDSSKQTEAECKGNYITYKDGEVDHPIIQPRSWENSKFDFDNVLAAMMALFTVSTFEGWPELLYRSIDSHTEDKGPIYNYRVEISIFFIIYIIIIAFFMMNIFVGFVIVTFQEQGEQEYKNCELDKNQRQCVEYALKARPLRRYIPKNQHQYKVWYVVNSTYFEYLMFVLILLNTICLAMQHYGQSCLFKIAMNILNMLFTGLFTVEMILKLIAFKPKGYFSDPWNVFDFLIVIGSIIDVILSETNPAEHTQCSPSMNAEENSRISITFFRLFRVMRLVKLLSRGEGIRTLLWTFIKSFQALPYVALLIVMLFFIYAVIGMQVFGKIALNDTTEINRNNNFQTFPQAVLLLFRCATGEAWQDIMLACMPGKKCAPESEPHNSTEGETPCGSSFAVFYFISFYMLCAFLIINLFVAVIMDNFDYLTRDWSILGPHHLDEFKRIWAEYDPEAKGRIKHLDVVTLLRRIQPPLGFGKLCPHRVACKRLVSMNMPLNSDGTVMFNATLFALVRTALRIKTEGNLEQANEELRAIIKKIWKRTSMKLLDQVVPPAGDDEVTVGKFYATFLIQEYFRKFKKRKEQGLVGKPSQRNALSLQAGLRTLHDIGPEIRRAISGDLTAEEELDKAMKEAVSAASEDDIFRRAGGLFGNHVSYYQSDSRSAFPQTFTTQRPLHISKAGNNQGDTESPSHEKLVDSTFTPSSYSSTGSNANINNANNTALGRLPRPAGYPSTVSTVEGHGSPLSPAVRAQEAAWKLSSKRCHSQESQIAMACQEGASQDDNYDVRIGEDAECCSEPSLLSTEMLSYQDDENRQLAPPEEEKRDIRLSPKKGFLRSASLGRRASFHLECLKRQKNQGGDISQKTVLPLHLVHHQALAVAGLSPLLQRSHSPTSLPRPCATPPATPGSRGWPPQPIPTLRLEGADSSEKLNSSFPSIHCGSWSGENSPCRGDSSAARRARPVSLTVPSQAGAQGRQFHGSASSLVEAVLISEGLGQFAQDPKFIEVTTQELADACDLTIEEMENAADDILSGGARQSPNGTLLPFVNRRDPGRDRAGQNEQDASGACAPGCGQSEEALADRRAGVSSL
- procedure.text: Antagonist activity at rabbit CaV1.2alpha1C transfected in HEK293 cells by FLIPR assay
property: IC50

For reference, reported IC50 for `C[C@@H]1[C@@H](n2c(=O)cc(O)n(CCc3cccc(Cl)c3)c2=O)C[C@H]2C[C@@H]1C2(C)C` stands at > 100 µM

For reference, reported IC50 for `C[C@H](C1CCCCC1)n1c(=O)cc(O)n(CCc2ccc(Cl)cc2)c1=O` stands at > 100 µM

For reference, reported IC50 for `O=c1cc(O)n(CCc2cccc(Cl)c2)c(=O)n1C1CCCC1` stands at > 100 µM

For reference, reported IC50 for `O=c1cc(O)n(CCc2cccc(C(F)(F)F)c2)c(=O)n1[C@H]1C[C@H]2CC[C@@H]1C2` stands at > 100 µM

For reference, reported IC50 for `O=c1cc(O)n(CCc2cccc(Cl)c2)c(=O)n1[C@@H]1C[C@@H]2CC[C@H]1C2` stands at > 100 µM

For reference, reported IC50 for `O=c1cc(O)n(CCc2ccc(Cl)cc2)c(=O)n1[C@H]1C[C@H]2CC[C@@H]1C2` stands at 100 µM

For reference, reported IC50 for `C[C@H]1CCC[C@H]1n1c(=O)cc(O)n(CCc2ccc(Cl)cc2)c1=O` stands at 10 µM

For reference, reported IC50 for `C[C@@H](C1CCCCC1)n1c(=O)cc(O)n(CCc2ccc(Cl)cc2)c1=O` stands at > 100 µM

For reference, reported IC50 for `O=c1cc(O)n(CCc2cccc(C(F)(F)F)c2)c(=O)n1[C@@H]1C[C@@H]2CC[C@H]1C2` stands at 100 µM

For reference, reported IC50 for `CC1(C)[C@@H]2CC[C@@]1(C)[C@@H](n1c(=O)cc(O)n(CCc3ccc(Cl)cc3)c1=O)C2` stands at > 100 µM

For reference, reported IC50 for `CC1(C)[C@@H]2CC[C@@]1(C)[C@@H](n1c(=O)cc(O)n(CCc3cccc(Cl)c3)c1=O)C2` stands at > 100 µM

For reference, reported IC50 for `CC1(C)CCC[C@H]1n1c(=O)cc(O)n(CCc2cccc(Cl)c2)c1=O` stands at 4.7 µM

For reference, reported IC50 for `O=c1cc(O)n(CC2(c3ccc(Cl)cc3)CC2)c(=O)n1C1CCCC1` stands at > 100 µM

For reference, reported IC50 for `O=c1cc(O)n(CCc2cccc(Cl)c2)c(=O)n1[C@H]1CCC[C@@H]1O` stands at > 100 µM

For reference, reported IC50 for `O=c1cc(O)n(-c2cccc(C(F)(F)F)c2)c(=O)n1C1CCCC1` stands at > 100 µM

For reference, reported IC50 for `C[C@@H]1CCC[C@@H]1n1c(=O)cc(O)n(CCc2ccc(Cl)cc2)c1=O` stands at 5.1 µM

For reference, reported IC50 for `C[C@H](C1CCCCC1)n1c(=O)cc(O)n(CCc2cccc(Cl)c2)c1=O` stands at > 100 µM

For reference, reported IC50 for `C[C@@H](C1CCCCC1)n1c(=O)cc(O)n(CCc2cccc(Cl)c2)c1=O` stands at > 100 µM

For reference, reported IC50 for `O=c1cc(O)n(CCc2ccc(Cl)cc2)c(=O)n1C[C@H]1CCCO1` stands at > 100 µM

For reference, reported IC50 for `CCOC(=O)[C@@H]1CCC[C@@H]1n1c(=O)cc(O)n(CCc2cccc(Cl)c2)c1=O` stands at 12.6 µM

For reference, reported IC50 for CC(Cn1c(O)cc(=O)n(C2CC3CCC2C3)c1=O)c1cccc(Cl)c1 (stereo unspecified) stands at 5.1 µM

Every entry's value here was drawn from BindingDB's records for doi:10.1021/jm4005048.
